protocol.summary: Biodistribution at 24 h p.i. in AR42J tumor-bearing CB17-SCID mice
Type: in vivo
particulars: mouse, lung, 100 pmol, n=4, mean ± SD, read-out: Biodistribution, Lung
test.readout: tissue uptake at 24 h

CCCC[C@@H](C(=O)N[C@@H](CC(=O)O)C(=O)N[C@@H](Cc1cccc2ccccc12)C(N)=O)N(C)C(=O)[C@H](Cc1c[nH]c2ccccc12)NC(=O)CCOCCOCCOCCOCCNC(=O)CC[C@@H](NC(=O)CCOCCOCCOCCOCCOCCNC(=O)CC[C@@H](NC(=O)[C@@H](CNC(=O)C[N+](C)(C)Cc1ccc([Si](F)(C(C)(C)C)C(C)(C)C)cc1)NC(=O)CN1CCN(CC(=O)O)CCN(CC(=O)O)CCN(CC(=O)O)CC1)C(=O)O)C(=O)O [[^nat/177Lu]Lu-DOTA-rhCCK-91, metal not drawn] ... 0.26 %ID/g
CCCC[C@@H](C(=O)N[C@@H](CC(=O)O)C(=O)N[C@@H](Cc1cccc2ccccc12)C(N)=O)N(C)C(=O)[C@H](Cc1c[nH]c2ccccc12)NC(=O)CCOCCOCCOCCOCCNC(=O)CC[C@@H](NC(=O)CCOCCOCCOCCOCCOCCOCCOCCOCCNC(=O)CC[C@@H](NC(=O)[C@@H](CNC(=O)c1ccc([Si](F)(C(C)(C)C)C(C)(C)C)cc1)NC(=O)CN1CCN(CC(=O)O)CCN(CC(=O)O)CCN(CC(=O)O)CC1)C(=O)O)C(=O)O [[^nat/177Lu]Lu-DOTA-rhCCK-70, metal not drawn] ... 0.39 %ID/g

Data provenance: paper PMC10907560
